// data source = patent US10231453B2

# Test system: Venturia inaequalis
# Method: In vivo preventive Venturia test (apples), Example J
# Conditions: 240 h, read-out: efficacy
Property: pest or weed control at 100 ppm

stdin: Please report pest or weed control at 100 ppm for the following compound: OC(Cc1ccccc1F)(Cn1cncc1Cl)C1(Cl)CC1 (stereo not shown)
stdout: 90 to 100%

stdin: Supply reported pest or weed control at 100 ppm belonging to this compound: C#Cc1cncn1CC(O)(Cc1ccccc1Cl)C1(Cl)CC1 (stereo not shown)
stdout: 90 to 100%

stdin: Quote pest or weed control at 100 ppm reported for OC(Cc1ccc(Cl)cc1F)(Cn1cncc1Cl)C1(Cl)CC1 (stereo not shown) please.
stdout: 90 to 100%

stdin: State, in one line, measured pest or weed control at 100 ppm of N#Cc1cncn1CC(O)(Cc1ccccc1Cl)C1(Cl)CC1 (stereo not shown)
stdout: 80 to 89%

stdin: Specify measured pest or weed control at 100 ppm for N#Cc1cncn1CC(O)(Cc1cccc(F)c1F)C1(F)CC1 (stereo not shown) .
stdout: 80 to 89%

stdin: Supply recorded pest or weed control at 100 ppm for N#Cc1cncn1CC(O)(Cc1cccnc1Cl)C1(Cl)CC1 (stereo not shown) here.
stdout: 90 to 100%

stdin: Provide pest or weed control at 100 ppm value for the following compound: N#Cc1cncn1CC(O)(Cc1ccccc1Cl)C1(F)CC1 (stereo not shown)
stdout: 90 to 100%

stdin: # return recorded pest or weed control at 100 ppm for entry CC(C)(C)C(O)(Cc1ccccc1F)Cn1cncc1C#N (stereo not shown)
stdout: 70 to 79%

stdin: Please indicate pest or weed control at 100 ppm recorded for N#Cc1cncn1CC(O)(Cc1ccc(F)cc1)C1(Cl)CC1 (stereo not shown)
stdout: 90 to 100%

stdin: Kindly indicate its recorded pest or weed control at 100 ppm. Item: N#Cc1cncn1CC(O)(Cc1ccc(Br)cc1F)C1(Cl)CC1 (stereo not shown)
stdout: 80 to 89%

----------
# System: Botrytis cinerea
# Method: In vivo preventive test on Botrytis cinerea (grey mould) on gherkin, Examples B, Q1 and R2
# Conditions: Botrytis cinerea, 500 ppm of active ingredient, preventive spray, evaluated 4 to 5 days after inoculation, read-out: efficacy
Recorded pest or weed control at 500 ppm values for a group of compounds are listed next.

Below, 5 compounds whose answers are already recorded.
Compound: OC(Cc1ccc(F)cc1F)(Cn1cncc1Cl)C1(Cl)CC1 (centres unmarked) [Example I-126]
pest or weed control at 500 ppm: 90 to 100%
//
Compound: OC(Cc1ccccc1Cl)(Cn1cncc1C(F)(F)F)C1(Cl)CC1 (centres unmarked) [Example I-15]
pest or weed control at 500 ppm: 70 to 79%
//
Compound: N#Cc1cncn1CC(O)(Cc1ccc(F)cc1)C1(Cl)CC1 (centres unmarked) [Example I-157]
pest or weed control at 500 ppm: 90 to 100%
//
Compound: OC(Cc1ccnc(Cl)c1)(Cn1cncc1Cl)C1(Cl)CC1 (centres unmarked) [Example I-75]
pest or weed control at 500 ppm: 80 to 89%
//
Compound: N#Cc1cncn1CC(O)(Cc1ccccc1Cl)C1(Cl)CC1 (centres unmarked) [Example I-06]
pest or weed control at 500 ppm: 90 to 100%

stdin: For the compound C#Cc1cncn1CC(O)(Cc1ccccc1F)C1(Cl)CC1 (centres unmarked) [Example I-36] , report pest or weed control at 500 ppm.
stdout: 90 to 100%

stdin: Please give measured pest or weed control at 500 ppm of the following entry: CC1(C(O)(Cc2cccc(F)c2F)Cn2cncc2C#N)CC1 (centres unmarked) [Example I-144]
stdout: 90 to 100%

----------
# Method: Measurement of LogP values by HPLC on reversed phase columns (EEC directive 79/831 Annex V.A8)
# Assay type: physicochemical
# Conditions: method [a]: LC-UV, acidic range, 0.1% formic acid in water and acetonitrile as eluent; Table 1
// classify(record): look up chromatographic logP in ranges low = under 2, mid = from 2 up to 3, high = 3 and over

stdin: Lab note: sort C#Cc1cncn1CC(O)(Cc1ccccc1Cl)C1(Cl)CC1 (stereo not drawn) [Example I-38] into the matching chromatographic logP band.
stdout: mid

----------
# System: Pyricularia oryzae
# Method: whole plant or invertebrate
# Type: in vivo
# Conditions: 192 h, read-out: efficacy
Property: pest or weed control at 500 ppm

stdin: Provide pest or weed control at 500 ppm, system Pyricularia oryzae, entry N#Cc1cncn1CC(O)(Cc1cccc(F)c1F)C1(Cl)CC1 (stereo not drawn) [Example I-146]
stdout: 70 to 79%

----------
Recorded pest or weed control at 500 ppm values for a group of compounds are listed next.
# Tested on: Pyricularia oryzae
# Method: whole plant or invertebrate
# Type: in vivo
# Conditions: 192 h, read-out: efficacy

Below, each entry is followed by its recorded pest or weed control at 500 ppm result.
Compound: OC(Cc1ccc(Br)cc1F)(Cn1cncc1Cl)C1(Cl)CC1 (stereo not drawn)
Test Target: Pyricularia oryzae
pest or weed control at 500 ppm: 70 to 79%
--
Compound: OC(Cc1ccc(Cl)cc1F)(Cn1cncc1Br)C1(Cl)CC1 (stereo not drawn)
Test Target: Pyricularia oryzae
pest or weed control at 500 ppm: 90 to 100%
--
Compound: OC(Cc1ccccc1)(Cn1cncc1Cl)C1(Cl)CC1 (stereo not drawn)
Test Target: Pyricularia oryzae
pest or weed control at 500 ppm: 70 to 79%
--
Compound: CC(C)(C)C(O)(Cc1ccccc1F)Cn1cncc1C#N (stereo not drawn)
Test Target: Pyricularia oryzae
pest or weed control at 500 ppm: 80 to 89%
--
Compound: N#Cc1cncn1CC(O)(Cc1ccnc(Cl)c1Cl)C1(Cl)CC1 (stereo not drawn)
Test Target: Pyricularia oryzae
pest or weed control at 500 ppm: 70 to 79%
--
Compound: N#Cc1cncn1CC(O)(Cc1ccc(Br)cc1F)C1(Cl)CC1 (stereo not drawn)
Test Target: Pyricularia oryzae
pest or weed control at 500 ppm: 80 to 89%
--
Compound: OC(Cc1ccc(Cl)cc1F)(Cn1cncc1Cl)C1(Cl)CC1 (stereo not drawn)
Test Target: Pyricularia oryzae
pest or weed control at 500 ppm: 90 to 100%
--
Compound: N#Cc1cncn1CC(O)(Cc1cccnc1Cl)C1(Cl)CC1 (stereo not drawn)
Test Target: Pyricularia oryzae
pest or weed control at 500 ppm: 80 to 89%

stdin: Assign pest or weed control at 500 ppm to the following record: CSc1cncn1CC(O)(Cc1ccccc1Cl)C1(Cl)CC1 (stereo not drawn)
stdout: 80 to 89%

stdin: Specify reported pest or weed control at 500 ppm for the compound shown: N#Cc1cncn1CC(O)(Cc1ccc(F)cc1F)C1(F)CC1 (stereo not drawn)
stdout: 70 to 79%

stdin: Determine its reported pest or weed control at 500 ppm: OC(Cc1c(Cl)ccnc1Cl)(Cn1cncc1Cl)C1(Cl)CC1 (stereo not drawn)
stdout: 80 to 89%

stdin: Please report pest or weed control at 500 ppm for the following compound: N#Cc1cncn1CC(O)(Cc1cccc(F)c1F)C1(F)CC1 (stereo not drawn)
stdout: 70 to 79%

stdin: Give the reported pest or weed control at 500 ppm for this compound. N#Cc1cncn1CC(O)(Cc1ccccc1F)C1(F)CC1 (stereo not drawn)
stdout: 80 to 89%

----------
# Method: Measurement of LogP values by HPLC on reversed phase columns (EEC directive 79/831 Annex V.A8)
# Type: physicochemical
# Conditions: method [a]: LC-UV, acidic range, 0.1% formic acid in water and acetonitrile as eluent; Table 1
Property: chromatographic logP
Reply with the value as a number alone.

Below are worked cases with known answers.
Compound: NC(=O)c1cncn1CC(O)(Cc1ccc(Cl)cc1F)C1CC1 (centres unmarked) [Example I-116]
Recorded Number: 1.49
//
Compound: OC(Cc1ccccc1Cl)(Cn1cncc1Cl)C1(Cl)CC1 (centres unmarked) [Example I-02]
Recorded Number: 2.32
//
Compound: CCOC(=O)c1cncn1CC(O)(Cc1ccccc1F)C1(Cl)CC1 (centres unmarked) [Example I-135]
Recorded Number: 2.73
//
Compound: CC(C)C(O)(Cc1ccc(F)cc1)Cn1cncc1C#N (centres unmarked) [Example I-162]
Recorded Number: 2.44
//
Compound: CC1(C(O)(Cc2ccccc2F)Cn2cncc2C#N)CC1 (centres unmarked) [Example I-131]
Recorded Number: 2.68
//
Compound: OC(Cc1ccccc1C(F)(F)F)(Cn1cncc1Cl)C1(Cl)CC1 (centres unmarked) [Example I-89]
Recorded Number: 2.62

stdin: Give the measured chromatographic logP for OC(Cn1cncc1Br)(C(F)c1ccccc1Cl)C1(Cl)CC1 (centres unmarked) [Example I-23]
stdout: 2.32

stdin: Consider the compound N#Cc1cncn1CC(O)(Cc1ccncc1Cl)C1(Cl)CC1 (centres unmarked) [Example I-57] and give its recorded chromatographic logP.
stdout: 1.88

stdin: Return chromatographic logP for the following compound: N#Cc1cncn1CC(O)(Cc1ccccc1Cl)C1CC1 (centres unmarked) [Example I-80]
stdout: 2.57

----------
pest or weed control at 500 ppm listing for selected molecules.
# Test system: Blumeria graminis fsp. hordei
# Method: In vivo preventive Blumeria test (barley), Example K
# Conditions: 168 h, 500 ppm of active ingredient, preventive spray, evaluated 7 days after inoculation, read-out: efficacy

Molecule: N#Cc1cncn1CC(O)(Cc1ccc(F)c(F)c1)C1(Cl)CC1 (stereo not drawn)
Result: 90 to 100%
--
Molecule: OC(Cc1cc(F)ncc1Cl)(Cn1cncc1Cl)C1(Cl)CC1 (stereo not drawn)
Result: 90 to 100%
--
Molecule: COC(=O)c1cncn1CC(O)(Cc1ccccc1Cl)C1(Cl)CC1 (stereo not drawn)
Result: 90 to 100%
--
Molecule: N#Cc1cncn1CC(O)(Cc1ccccc1Cl)CC1CC1 (stereo not drawn)
Result: 90 to 100%
--
Molecule: OC(Cc1ccc(Br)cc1F)(Cn1cncc1Cl)C1(Cl)CC1 (stereo not drawn)
Result: 90 to 100%
--
Molecule: N#Cc1cncn1CC(O)(Cc1ccc(F)cc1F)C1(Cl)CC1 (stereo not drawn)
Result: 90 to 100%
--
Molecule: OC(Cc1ccc(Cl)cc1F)(Cn1cncc1Br)C1(Cl)CC1 (stereo not drawn)
Result: 90 to 100%
--
Molecule: OC(Cc1ccc(F)cc1F)(Cn1cncc1Cl)C1(Cl)CC1 (stereo not drawn)
Result: 90 to 100%

Consider the additional molecule presented here.
stdin: State, in one line, measured pest or weed control at 500 ppm of C#Cc1cncn1CC(O)(Cc1ccccc1Cl)C1(Cl)CC1 (stereo not drawn)
stdout: 90 to 100%
